Target: human TPH1 (Homo sapiens)
Sequence (P17752 whole entry): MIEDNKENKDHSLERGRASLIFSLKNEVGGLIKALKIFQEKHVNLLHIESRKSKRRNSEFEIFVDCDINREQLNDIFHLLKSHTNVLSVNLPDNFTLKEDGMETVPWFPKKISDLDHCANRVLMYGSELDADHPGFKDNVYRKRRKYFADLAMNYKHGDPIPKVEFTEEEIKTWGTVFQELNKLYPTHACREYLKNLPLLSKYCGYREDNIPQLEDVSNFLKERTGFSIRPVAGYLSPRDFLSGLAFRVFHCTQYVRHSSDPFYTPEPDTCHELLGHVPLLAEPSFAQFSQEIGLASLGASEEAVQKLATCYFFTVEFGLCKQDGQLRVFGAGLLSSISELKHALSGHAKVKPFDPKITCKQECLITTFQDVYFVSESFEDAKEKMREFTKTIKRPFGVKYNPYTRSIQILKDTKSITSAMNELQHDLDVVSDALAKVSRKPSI
Test: biochemical
pIC50: −log10 of the molar value.
readout label: pIC50

{"columns": ["molecule", "result number"],
 "data": [
  ["COc1ccc(C2c3c(nc4cc(C(F)(F)F)ccn34)CCN2C(=O)COc2cc(F)ccc2Cl)cc1OC (stereo not shown)", 6.99]
]}

1: COc1ccc(C2c3c(nc4cc(C(F)(F)F)ccn34)CCN2C(=O)COc2ccc3c(c2)OCO3)cc1OC (stereo not shown)
2: O=C(COc1ccc(N2CCOCC2)cc1Cl)N1CCc2nc3cccnn3c2C1c1ccc(C2CC2)cc1F (stereo not shown)
3: COc1cc(F)c(C2c3c(nc4cc(C(F)(F)F)ccn34)CCN2C(=O)COc2ccc(C3(N)COC3)cc2Cl)cc1OC (stereo not shown)
Inquiry: Hi! Can you put these in order of pIC50, lowest number first? Show the ranking through the labels, in the order asked for.
Reply text: 1, 2, 3
(1: 6.94, 2: 7.72, 3: 8.00)
